Please go through the items and note down their inhibition at 1 µM.
Target: GST-tagged ROR gamma ligand binding domain (LBD) (Homo sapiens, UniProt P51449)
Construct: purchased Invitrogen
Assay: TR-FRET assay for ROR gamma (LanthaScreen co-activator peptide recruitment)
Type: biochemical
Conditions: compound 1 μM; TR-FRET ratio 520/495, percent of control
Entry rule: numbers only, all in %.

Prompt: Recorded inhibition at 1 µM for CCS(=O)(=O)c1ccc(CC(=O)Nc2ccc(OC3(c4ccc(F)cc4F)CCC3)c(F)c2)cc1 , please?
Completion: 81.4

Prompt: I would be grateful if you could share the reported inhibition at 1 µM for CCS(=O)(=O)c1ccc(CC(=O)Nc2ccc(OC3(c4ccc(Cl)c(F)c4)COC3)c(F)c2)cc1 .
Completion: 81.7

Prompt: For CCS(=O)(=O)c1ccc(CC(=O)Nc2ccc(OC(C)(C)Cn3c(C)cc4cc(F)ccc43)cc2)cc1 , what is its reported inhibition at 1 µM?
Completion: 67.7

Prompt: Please look up its inhibition at 1 µM: CCS(=O)(=O)c1ccc(CC(=O)Nc2cc(F)c(OC(C)(C)c3ccc(Cl)cc3Cl)c(F)c2)cc1
Completion: 16.6

Prompt: Using the record for CCS(=O)(=O)c1ccc(CC(=O)Nc2ccc3c(c2)nc(C(C)(C)Oc2ccc(F)cc2F)n3CC(C)C)cc1 , report its inhibition at 1 µM.
Completion: 79.1

Prompt: Param item = CCN(C(=O)C(C)(C)Oc1ccc(NC(=O)Cc2ccc(S(=O)(=O)CC)cc2)cc1)c1ccc(Cl)cc1Cl ; retrieve measured inhibition at 1 µM.
Completion: 2.49

Prompt: I have this compound here, CCN(C(=O)C(C)(C)Oc1ccc(F)cc1F)c1ccc(NC(=O)Cc2ccc(S(=O)(=O)CC)cc2)cc1 , and I need its recorded inhibition at 1 µM.
Completion: 52.9

###

Target: GST-tagged ROR gamma ligand binding domain (LBD) (Homo sapiens, UniProt P51449)
Sequence (P51449 269-508 limits assumed): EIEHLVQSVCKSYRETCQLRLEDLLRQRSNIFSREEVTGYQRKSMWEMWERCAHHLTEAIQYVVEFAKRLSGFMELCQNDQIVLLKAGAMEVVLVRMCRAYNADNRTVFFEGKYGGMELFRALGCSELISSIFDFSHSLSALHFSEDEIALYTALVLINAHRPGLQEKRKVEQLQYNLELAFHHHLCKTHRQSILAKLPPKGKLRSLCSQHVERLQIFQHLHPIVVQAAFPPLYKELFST
For each record, write down the corresponding IC50.

Prompt: Sample CCS(=O)(=O)c1ccc(CC(=O)Nc2ccc(OC(C)(C)c3ccc(F)cc3Cl)cc2)cc1 [Example 8] — what was its IC50?
Completion: < 50 nM

Prompt: Could you tell me which IC50 is on file for CCS(=O)(=O)c1ccc(CC(=O)Nc2ccc(C#CC(C)(C)Oc3ccc(Cl)cc3F)cc2)cc1 [Example 65] ?
Completion: < 50 nM

Prompt: What does the record list as IC50 for CCS(=O)(=O)c1ccc(CC(=O)Nc2ccc(OC3(c4ccc(Cl)c(F)c4)CCC3)cc2)cc1 [Example 32] ?
Completion: < 50 nM

Prompt: IC50 lookup needed for CCN(C(=O)C(C)(C)Oc1ccc(NC(=O)Cc2ccc(S(=O)(=O)CC)cc2)cc1F)c1ccc(Cl)c(F)c1 [Example 131] , thanks.
Completion: 50 to 100 nM

Prompt: Entry CCn1c(C2(Oc3ccc(NC(=O)Cc4ccc(S(=O)(=O)CC)cc4)cc3)CCC2)nc2cc(F)ccc21 [Example 26] has what IC50?
Completion: 50 to 100 nM

Prompt: State the recorded IC50 for this entry: CCS(=O)(=O)c1ccc(CC(=O)Nc2ccc(OC(C)(C)c3nc4ccc(Cl)cc4n3C)cc2)cc1 [Example 18]
Completion: > 100 nM

Prompt: So what does the record say about IC50 for CCS(=O)(=O)c1ccc(CC(=O)Nc2ccc(C#CC(C)(C)Oc3ccc(Cl)c(F)c3)cc2)cc1 [Example 66] ?
Completion: < 50 nM

Prompt: Look up IC50: CCS(=O)(=O)c1ccc(CC(=O)Nc2ccc(OC(C)(C)Cn3ccc4cc(Cl)ccc43)cc2)cc1 [Example 29]
Completion: < 50 nM

Prompt: I have this compound here, CCS(=O)(=O)c1ccc(CC(=O)Nc2ccc(OC(C)(C)c3nc4cc(F)ccc4n3C(C)C)cc2)cc1 [Example 20] , and I need its recorded IC50.
Completion: > 100 nM

Prompt: // query IC50 value for entry CCn1c(C(C)(C)Oc2ccc(NC(=O)Cc3ccc(S(=O)(=O)CC)cc3)cc2F)nc2cc(F)ccc21 [Example 111]
Completion: < 50 nM

Prompt: Recorded IC50 for CCn1c(C(C)(C)Oc2cc(F)c(F)cc2F)nc2cc(NC(=O)Cc3ccc(S(=O)(=O)CC)cc3)ccc21 [Example 92] , please?
Completion: < 50 nM

Prompt: Sample CCS(=O)(=O)c1ccc(CC(=O)Nc2ccc(OC3(c4ccc(Cl)cc4)CCC3)cc2)cc1 [Example 31] — what was its IC50?
Completion: 50 to 100 nM

Prompt: Look at this compound and give its reported IC50. CCn1c(C(C)(C)Oc2ccc(Cl)cc2)nc2cc(NC(=O)Cc3ccc(S(=O)(=O)CC)cc3)ccc21 [Example 93]
Completion: < 50 nM

Prompt: Find the recorded IC50 belonging to CCS(=O)(=O)c1ccc(CC(=O)Nc2ccc(OC3(c4ccc(Cl)c(F)c4)CCOCC3)c(F)c2)cc1 [Example 103] and report it.
Completion: < 50 nM

Prompt: Which IC50 is listed for CCS(=O)(=O)c1ccc(CC(=O)Nc2ccc(OC3(c4ccc(Cl)c(F)c4)CCCCC3)c(F)c2)cc1 [Example 122] ?
Completion: < 50 nM

###

Molecular target: GST-tagged ROR gamma ligand binding domain (LBD) (Homo sapiens)
Construct: purchased Invitrogen
Experiment: TR-FRET assay for ROR gamma (LanthaScreen co-activator peptide recruitment)
Assay type: biochemical
Details: compound 10 μM; TR-FRET ratio 520/495, percent of control
assay-metric: inhibition at 10 µM (%)
Respond with the bare value in %.

Prompt: Lookup: inhibition at 10 µM / GST-tagged ROR gamma ligand binding domain (LBD) (Homo sapiens) / CCn1c(C(F)(F)Oc2ccc(NC(=O)Cc3ccc(S(=O)(=O)CC)cc3)cc2)nc2cc(Cl)ccc21 [Example 22]
Completion: 82.8

Prompt: Kindly state the measured inhibition at 10 µM obtained for CCS(=O)(=O)c1ccc(CC(=O)Nc2ccc(OC(C)(C)c3ccc(F)cc3Cl)nc2)cc1 [Example 57] with GST-tagged ROR gamma ligand binding domain (LBD) (Homo sapiens).
Completion: 91.3

Prompt: Param readout= inhibition at 10 µM; system= GST-tagged ROR gamma ligand binding domain (LBD) (Homo sapiens); entry= CCN(C(=O)C(C)(C)Oc1ccc(NC(=O)Cc2ccc(S(=O)(=O)CC)cc2)cc1)c1ccc(Cl)c(F)c1 [Example 130] ; returns value.
Completion: 85.2

Prompt: // fetch GST-tagged ROR gamma ligand binding domain (LBD) (Homo sapiens) inhibition at 10 µM for CCS(=O)(=O)c1ccc(CC(=O)Nc2ccc(C#CC(C)(C)Oc3ccc(F)c(Cl)c3)cc2)cc1 [Example 68]
Completion: 79.9

###

Target: GST-tagged ROR gamma ligand binding domain (LBD) (Homo sapiens, UniProt P51449)
Construct: purchased Invitrogen
Sequence (P51449 269-508 limits assumed): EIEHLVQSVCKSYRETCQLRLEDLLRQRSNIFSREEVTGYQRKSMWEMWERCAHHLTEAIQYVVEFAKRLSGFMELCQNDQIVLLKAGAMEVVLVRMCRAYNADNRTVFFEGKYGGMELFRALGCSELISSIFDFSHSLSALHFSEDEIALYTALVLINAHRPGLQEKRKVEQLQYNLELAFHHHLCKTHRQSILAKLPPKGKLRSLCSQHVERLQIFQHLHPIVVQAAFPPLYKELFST
Assay: TR-FRET assay for ROR gamma (LanthaScreen co-activator peptide recruitment)
Format: biochemical
Details: compound 10 μM; TR-FRET ratio 520/495, percent of control
// assign t if inhibition at 10 µM falls strictly below 90%, else f (ties count as f)

Prompt: Lab note: inhibition at 10 µM threshold 90%. Does this compound come in strictly under it? CCN(C(=O)C(C)(C)Oc1ccc(NC(=O)Cc2ccc(S(=O)(=O)CC)cc2)cc1)c1ccc(Cl)cc1Cl [Example 129]
Completion: t

Prompt: Hello, I'm reviewing records and need to know if inhibition at 10 µM of CCS(=O)(=O)c1ccc(CC(=O)Nc2ccc(OC3(c4ccc(Cl)cc4Cl)CCCC3)c(F)c2)cc1 [Example 137] is below 90%. Could you check?
Completion: t

Prompt: State whether 90% exceeds inhibition at 10 µM recorded for CCC(CC)(Oc1ccc(NC(=O)Cc2ccc(S(=O)(=O)CC)cc2)cc1)c1ccc(Cl)c(F)c1 [Example 12] .
Completion: t

Prompt: Threshold test, inhibition at 10 µM < 90%: CCS(=O)(=O)c1ccc(CC(=O)Nc2ccc(OC3(c4nc5cc(Cl)ccc5n4C)CCC3)cc2)cc1 [Example 25]
Completion: f

Prompt: Is inhibition at 10 µM of CCn1c(C(C)(C)Oc2ccc(NC(=O)Cc3ccc(S(=O)(=O)CC)cc3)cc2)nc2cc(Cl)ccc21 [Example 16] strictly below 90%?
Completion: f

Prompt: I'd appreciate it if you could check whether CCS(=O)(=O)c1ccc(CC(=O)Nc2ccc(OC3(c4ccc(F)c(C(F)(F)F)c4)CCOCC3)cc2)cc1 [Example 42] has inhibition at 10 µM smaller than 90%.
Completion: t

Prompt: Quick check: does CCS(=O)(=O)c1ccc(CC(=O)Nc2ccc(C#CC(C)(C)Oc3cc(F)c(F)c(F)c3)cc2)cc1 [Example 71] have inhibition at 10 µM under 90%?
Completion: t

Prompt: Decide: inhibition at 10 µM of CCS(=O)(=O)c1ccc(CC(=O)Nc2ccc3c(c2)nc(C(C)(C)Oc2ccc(F)cc2F)n3CCF)cc1 [Example 145] strictly below 90%?
Completion: t

Prompt: Please check: inhibition at 10 µM for CCS(=O)(=O)c1ccc(CC(=O)Nc2ccc(OC3(c4ccc(Cl)cc4Cl)CCCC3)cc2)cc1 [Example 123] , strictly under 90% or not?
Completion: t

Prompt: Given CCS(=O)(=O)c1ccc(CC(=O)Nc2ccc(C#CC(C)(C)Oc3ccc(Cl)c(F)c3)c(F)c2)cc1 [Example 106] , is recorded inhibition at 10 µM strictly lower than 90%?
Completion: t
